Just for reference, patent US10501479B2 is where these values come from.

fraction unbound values by entry
Test: Plasma protein binding (PPB), mouse
Format: in vitro ADME
Form: value (number only, do not type unit).

Some compounds with recorded fraction unbound:
compound="COc1cc(S(=O)(=O)Cc2ccc3c(c2)CNC3)ccc1NC(=O)NC(C)c1cccc2ccccc12.O=C(O)C(F)(F)F (stereo not shown)" test_value=0.0031
compound="CC(NC(=O)Nc1ccc(S(=O)(=O)Cc2ccc3c(c2)CNC3)cc1)c1ccccc1Cl.Cl (stereo not shown)" test_value=0.019
compound="CC(NC(=O)Nc1ccc(S(=O)(=O)Cc2ccc3c(c2)CNC3)cc1)c1ccc(F)cc1 (stereo not shown)" test_value=0.05

For the next question, use this compound.
response.value for CC(c1ccccc1)N(C)C(=O)Nc1ccc(S(=O)(=O)Cc2ccc3c(c2)CN(C)C3)cc1 (stereo not shown) (field: fraction unbound) = 0.0854

====

Experiment: Animal PK study in mouse via i.v., p.o. and s.c. administration
Assay type: in vivo
Settings: p.o.
PK t1/2po values by entry
Give the quantity in h, number only.

response.value for C[C@H](NC(=O)Nc1ccc(S(=O)(=O)Cc2ccc(CO)cc2)cc1)c1cccc(Cl)c1Cl (field: PK t1/2po) = 0.7

====

Assay: Animal PK study in mouse via i.v., p.o. and s.c. administration
Type: in vivo
Settings: i.v.
readout.kind: PK Vdiv (L/kg)
Give the quantity in L/kg, number only.

response.value for C[C@H](NC(=O)Nc1ccc(S(=O)(=O)Nc2ccc(CC(C)(C)N(C)C)cc2)cc1)c1cccc(Cl)c1Cl [H0967] (field: PK Vdiv) = 8.62

response.value for C[C@H](NC(=O)Nc1ccc(S(=O)(=O)Cc2ccc3c(c2)CCNC3)cc1)c1cccc(Cl)c1Cl [H1027] (field: PK Vdiv) = 1.64

====

Target: recombinant human ghrelin receptor (HEK293/GRLN) (Homo sapiens)
Construct: expressed in transfected cells
Sequence (Q92847 whole entry): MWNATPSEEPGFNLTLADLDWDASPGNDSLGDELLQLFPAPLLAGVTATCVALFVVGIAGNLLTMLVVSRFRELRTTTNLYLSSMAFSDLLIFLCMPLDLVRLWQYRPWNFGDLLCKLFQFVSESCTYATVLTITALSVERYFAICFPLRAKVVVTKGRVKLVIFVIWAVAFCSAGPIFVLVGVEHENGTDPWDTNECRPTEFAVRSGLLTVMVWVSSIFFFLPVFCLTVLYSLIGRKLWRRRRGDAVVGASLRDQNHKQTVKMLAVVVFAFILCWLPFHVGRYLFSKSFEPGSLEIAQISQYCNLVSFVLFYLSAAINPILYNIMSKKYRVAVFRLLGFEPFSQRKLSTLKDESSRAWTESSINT
Assay: Ghrelin inverse agonist potency (EC50) with IP-1 (IP-One HTRF) assay
Assay type: cell-based
Conditions: inverse agonist potency, IP-1 assay; read-out: EC50 (Activity)
pEC50 values by entry
# log scale: pEC50 equals minus log10 of the concentration in mol/L

smiles_notation=C[C@H](NC(=O)Nc1ccc(S(=O)(=O)Cc2ccc3c(c2)CNC3)cc1)c1ccccc1 test_value=8.34

GET /values?item= C[C@H](NC(=O)Nc1ccc(S(=O)(=O)Cc2ccc3c(c2)CCN(C)C3)cc1)c1cccc(Cl)c1Cl &system= recombinant human ghrelin receptor (HEK293/GRLN) (Homo sapiens) returns pEC50: 8.77

GET /values?item= Cl.O=C(NCc1ccccc1)Nc1ccc(S(=O)(=O)Cc2ccc3c(c2)CNC3)cc1 &system= recombinant human ghrelin receptor (HEK293/GRLN) (Homo sapiens) returns pEC50: 7.43

GET /values?item= COCc1ccc(CS(=O)(=O)c2ccc(NC(=O)N[C@@H](C)c3cccc(Cl)c3Cl)cc2)cc1 &system= recombinant human ghrelin receptor (HEK293/GRLN) (Homo sapiens) returns pEC50: 6.49

====

Vd values by entry
Assay: Animal PK study in mouse via i.v., p.o. and s.c. administration
Format: in vivo
Conditions: plasma, iv, 5 mg/kg
Give the quantity in L/kg, number only.

Some molecules with recorded Vd:
molecule="CC(NC(=O)Nc1ccc(S(=O)(=O)Nc2ccc3c(c2)CCN(C)C3)cc1)c1cccc(Cl)c1Cl (centres unmarked) [H1333]" readout_kind=Vd unit_annotation=L/kg test_value=3.26
molecule="COc1cc(S(=O)(=O)Cc2ccc3c(c2)CCNC3)ccc1NC(=O)NC(C)c1cccc(Cl)c1Cl.Cl (centres unmarked) [H1415]" readout_kind=Vd unit_annotation=L/kg test_value=1.72
molecule="CC(NC(=O)Nc1ccc(S(=O)(=O)Cc2ccc3c(c2)CN(C)C3)cc1O)c1ccccc1 (centres unmarked) [H1448]" readout_kind=Vd unit_annotation=L/kg test_value=9.26
molecule="COc1ccc([C@@H](C)NC(=O)Nc2ccc(S(=O)(=O)Cc3ccc4c(c3)CCN(C)C4)cc2)c(Cl)c1Cl [H1417]" readout_kind=Vd unit_annotation=L/kg test_value=4.74
molecule="CC(NC(=O)Nc1ccc(S(=O)(=O)Cc2ccc3c(c2)CNC3)cc1)c1ccc(F)cc1 (centres unmarked) [H1262]" readout_kind=Vd unit_annotation=L/kg test_value=1.69
molecule="COc1cc(S(=O)(=O)Cc2ccc3c(c2)CN(C)C3)ccc1NC(=O)NC(C)c1ccccc1 (centres unmarked) [H1388]" readout_kind=Vd unit_annotation=L/kg test_value=6.3

response.value for CC(c1ccccc1)N(C)C(=O)Nc1ccc(S(=O)(=O)Cc2ccc3c(c2)CN(C)C3)cc1 (centres unmarked) [H1381] (field: Vd) = 3.1

response.value for C[C@H](NC(=O)Nc1ccc2c(c1)CC(c1ccc3c(c1)CNC3)S2(=O)=O)c1ccccc1 (some centres unmarked) [H1264] (field: Vd) = 4.83
